Task for the reader: assign each of the following variants its reported protein stability index.
B1: DYRK1B (parent)
chain: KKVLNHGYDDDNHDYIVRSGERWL

Variants of: B1
TEST_SUMMARY: protein stability index of a GFP-peptide fusion (GPS, HEK-293T) (PSI 1-6); higher = more stable;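 further: lentivirally expressed fusions sorted by FACS into six bins by GFP to DsRed ratio, PSI derived from sequencing read proportions per bin multiplied by bin number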
APPLIED_CONDITIONS: c terminus: a fixed tail appended

// for each variant in input: emit protein stability index
1. V3Q
2. K2W
3. D14Y
4. V17S
5. V3E
6. E21M
7. H13S
8. D10S

Found:
1. 3.08
2. 2.12
3. 2.55
4. 3.36
5. 3.48
6. 2.57
7. 3.42
8. 2.72

// for each variant in input: emit protein stability index
1. L24R
2. D14E
3. I16F
4. W23Q
5. D10K
6. I16K

Found:
3.55
3.03
3.09
4.2
3.16
3.49

// for each variant in input: emit protein stability index
1. D11Y
2. S19Q

Found:
2.48
3.46
